experiment: NCI Yeast Anticancer Drug Screen. Data for the rad50 strain (AID 155);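 also: 0% = growth of vehicle-only cultures of the same strain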; conditions: S. cerevisiae rad50 strain growth inhibition; at 50.0 µM (retest, dose inferred, filed as 5.0); hits give high values
About 79,000 compounds went through this panel and 15% of them were active in at least one assay; those are over-represented in the sample as a whole.
Measurement kind: growth inhibition (%)
Give just the number in %; leave the unit off.

Compound	growth inhibition [%]
C#CC1=CC(=O)C(OC)=CC1=O	99
O=C(CCC(=O)c1ccc(O)cc1)Oc1ccc(O)cc1	16
CSc1ccc2c(c1)C(N1CCN(C)CC1)Cc1ccccc1S2 (stereo unspecified)	67
CCN(CC)CCSc1c2ccccc2nc2cc(NCC(=O)Nc3ccccc3-c3ccccc3NC(=O)CNc3ccc4c(SCCN(CC)CC)c5ccccc5nc4c3)ccc12	96
Cc1cc(N(CCOS(C)(=O)=O)CCOS(C)(=O)=O)ccc1C=O	57
O=C(Cc1ccccc1)c1ccc(O)cc1	99

Consider the compound O=[N+]([O-])c1cccc2nc3ccccc3c(NCCC[N+]3([O-])CCOCC3)c12 and give its measured growth inhibition.
92

Consider the compound CN(NC(=O)/C(=C/C=C/c1ccccc1)NC(=O)c1ccccc1)C1=C(Cl)C(=O)[N+](c2ccccc2)=CC1 and give its measured growth inhibition.
30

Consider the compound Cc1ccc(Cl)c2c(=O)c3ccccc3[nH]c12 and give its measured growth inhibition.
71

Consider the compound c1cncc(C(Nc2cccc3cccnc23)Nc2cccc3cccnc23)c1 and give its measured growth inhibition.
44

Consider the compound O=C1c2ccccc2C(=O)C1C(c1ccc(F)cc1)C1C(=O)c2ccccc2C1=O and give its measured growth inhibition.
46

* * *

experiment: NCI Yeast Anticancer Drug Screen. Data for the wt2 strain (AID 169);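 also: 0% = growth of vehicle-treated yeast cultures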; details: S. cerevisiae wt2 strain growth inhibition; at 100.0 µM; hits give high values
About 79,000 compounds went through this panel and 15% of them were active in at least one assay; those are over-represented in the sample as a whole.
Hi, to clarify the labels: 1 covers growth inhibition from 10% upward, 0 covers anything below 10%.

A selection of reference data follows.
Molecule	Answer label
c1ccc(C2=NNC3c4ccccc4-c4ccccc4N3C2)cc1 (stereo unspecified)	1
Cc1cnccc1N=Nc1ccc(N(C)C)cc1	0
CN(Cc1cccc2ccccc12)Cc1cccc2ccccc12	0
Cc1ccc2oc(-c3cccc(N)c3)nc2c1	1
O=C(O)[C@H]1[C@@H](C2CCCCC2)O[C@@H](C2CCCCC2)O[C@H]1C(F)(F)F	0

Continue with the molecule presented below.
Would you say O=C1c2ccccc2C(=O)C1C(c1ccc(F)cc1)C1C(=O)c2ccccc2C1=O shows growth inhibition at minimum 10%?
1

* * *

assay: NCI Yeast Anticancer Drug Screen. Data for the sgs1 mgt1 strain (AID 161);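 also: 0% = growth of cultures given vehicle only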; settings: S. cerevisiae sgs1 mgt1 strain, at 50.0 µM, hits give high values
This is part of a sample that, as a whole, favours compounds with a hit. Of some 79,000 tested, about 15% had one in any assay.
Hi, to clarify the labels: Yes covers growth inhibition from 80% upward, No covers anything below 80%.

Compound	Answer label
O=C1c2ccccc2C(=O)C1C(c1ccc(F)cc1)C1C(=O)c2ccccc2C1=O	No

Would you say O=C(O)/C=C\C(=O)NNc1ccc(Br)cc1 shows growth inhibition at minimum 80%?
Yes

Would you say CCSc1c2ccccc2c(-c2nc(F)nc(F)n2)n1CCc1ccccc1 shows growth inhibition at minimum 80%?
Yes

Would you say O=C(Cc1ccccc1)c1ccc(O)cc1 shows growth inhibition at minimum 80%?
Yes

Would you say Cc1ccc2oc(-c3cccc(N)c3)nc2c1 shows growth inhibition at minimum 80%?
No

* * *

Measured growth inhibition, listed per entry.
assay: NCI Yeast Anticancer Drug Screen. Data for the rad50 strain (AID 155);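 also: 0% = growth of vehicle-only cultures of the same strain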; conditions: S. cerevisiae rad50 strain growth inhibition; at 50.0 µM; hits give high values
About 79,000 compounds went through this panel and 15% of them were active in at least one assay; those are over-represented in the sample as a whole. The source made the active and inactive calls. Cut-off read from the data, not from the text of the source: active = growth inhibition above about 70%; inactive = the rest.

Recorded results for 2 molecules are shown here.
Molecule	Measurement kind	Result
Cc1cc(NCCCN(C)C)c2ccc3c(ccc4c(NCCCN(C)C)cc(C)nc43)c2n1	growth inhibition	55.9% (inactive)
CNC(=O)OCc1c(COC(=O)NC)c(C)n(-c2ccc(Cl)c(Cl)c2)c1C	growth inhibition	89.6% (active)

Consider the molecule C[Si](C)(C)Cc1ccccc1C(=O)O and give its measured growth inhibition.
97.7% (active)

Consider the molecule O=C(Nn1c(-c2ccccc2)nc2ccccc2c1=O)c1ccc(Cl)cc1 and give its measured growth inhibition.
66.5% (inactive)

Consider the molecule CCN(CC)c1ccc(N=Nc2cc(S(=O)(=O)O)ccc2O)c(O)c1 and give its measured growth inhibition.
29.2% (inactive)

Consider the molecule CC[N+]1(C)CCC(O)(/C=C/c2ccc(Cl)c(Cl)c2)C(C(=O)/C=C/c2ccc(Cl)c(Cl)c2)C1 (stereo not drawn) and give its measured growth inhibition.
99.5% (active)

Consider the molecule CC1C=CN(N(C)C)C2=C1C(=O)c1cnccc1C2=O (stereo not drawn) and give its measured growth inhibition.
85% (active)

Consider the molecule CCOc1nc(OCC)nc(-c2cccn2-c2ccccc2)n1 and give its measured growth inhibition.
70.3% (active)

* * *

experiment: NCI Yeast Anticancer Drug Screen. Data for the sgs1 strain (AID 173);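 also: 0% = growth of vehicle-only control cultures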; conditions: S. cerevisiae sgs1 mutant, at 100.0 µM, hits give high values
This is part of a sample that, as a whole, favours compounds with a hit. Of some 79,000 tested, about 15% had one in any assay.
Hi, to clarify the labels: Fulfilled covers growth inhibition from 80% upward, Not fulfilled covers anything below 80%.

A selection of reference data follows.
Compound	Answer label
CC(=O)O/N=C/c1c2ccccc2cc2ccccc12	Not fulfilled
OC1C#CCSCC#C/C=C\1 (stereo unspecified)	Fulfilled
O=C1OC(/C=C/c2ccccc2)Sc2ccccc21 (stereo unspecified)	Not fulfilled

Would you say CC1(C)CC(=O)C(C(CC(c2ccccc2)c2cc3c(cc2O)OCO3)C2=C(O)CC(C)(C)CC2=O)=C(O)C1 (stereo unspecified) shows growth inhibition at minimum 80%?
Fulfilled

Would you say O=C(O)NCC1CCCCC1 (tested in a mixture with another compound) shows growth inhibition at minimum 80%?
Not fulfilled

* * *

test: NCI Yeast Anticancer Drug Screen. Data for the wt1 strain (AID 149);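 also: 0% = growth of vehicle-treated wt1 cultures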; conditions: S. cerevisiae wt1 strain (SPY 50644) growth inhibition; at 3.7 µM; hits give high values
Compounds without any hit were thinned out: in the full panel of roughly 79,000, 15% have a hit.
Measurement kind: growth inhibition (%)
Give just the number in %; leave the unit off.

Recorded results for 5 compounds are shown here.
Compound	Numeric value
S=c1[nH]nc(Cc2ccccc2)c(=S)[nH]1	-14
Cc1ccc(C(C)C)c(C(=C2C=CC(=[N+](C)C)C=C2)c2c(C(C)C)ccc(C)c2O)c1O	-2
O=C(Nn1c(-c2ccccc2)nc2ccccc2c1=O)c1ccc(Cl)cc1	15
OC1C#CCSCC#C/C=C\1 (centres undefined)	3
CC(=O)c1ccc(NCN2C(=O)c3ccccc3C2=O)cc1	-41

Consider the compound BrC/C=C/C[P+](c1ccccc1)(c1ccccc1)c1ccccc1 and give its measured growth inhibition.
9

Consider the compound CCOC(=O)C(NC(=O)c1ccccc1)[CH](c1ccccc1)[Sn]([c]1ccccc1)([c]1ccccc1)[c]1ccccc1 (centres undefined) and give its measured growth inhibition.
0

Consider the compound CN(NC(=O)/C(=C/C=C/c1ccccc1)NC(=O)c1ccccc1)C1=C(Cl)C(=O)[N+](c2ccccc2)=CC1 and give its measured growth inhibition.
2

Consider the compound O=C(CCCN1CCC2(CC1)OC(=O)N(c1ccccc1)C2=O)c1ccccc1 and give its measured growth inhibition.
45

Consider the compound CCCCOc1ccc(Nc2c3ccccc3nc3ccccc23)cc1 and give its measured growth inhibition.
-24

Consider the compound Cc1ccnc(NS(=O)(=O)c2ccc(Nc3c4ccccc4nc4ccccc34)cc2)n1 and give its measured growth inhibition.
20

Consider the compound O=C(CSS(=O)(=O)O)c1ccccc1 and give its measured growth inhibition.
5

Consider the compound CC(=O)CC[N+](C)(C)C and give its measured growth inhibition.
11

Consider the compound CCCCCCCCCC/C=C\CC(=O)O and give its measured growth inhibition.
-2

* * *

assay: NCI Yeast Anticancer Drug Screen. Data for the wt1 strain (AID 149);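 also: 0% = growth of vehicle-treated wt1 cultures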; settings: S. cerevisiae wt1 strain (SPY 50644) growth inhibition; at 33.0 µM; hits give high values
This is part of a sample that, as a whole, favours compounds with a hit. Of some 79,000 tested, about 15% had one in any assay.
Hi, to clarify the labels: condition met covers growth inhibition from 50% upward, condition not met covers anything below 50%.

Molecule	Answer label
Cc1cnccc1N=Nc1ccc(N(C)C)cc1	condition not met
O=C(Cc1ccccc1F)NC1=C(Cl)C(=O)c2ccccc2C1=O	condition not met
COc1ccc(CCN2C(=O)C=CC2=O)cc1OC	condition met
O=C(/C(=C/c1ccccc1)CBr)c1ccccc1	condition met

Would you say CCCC(=O)OC(OC(=O)CCC)c1ccc([N+](=O)[O-])o1 shows growth inhibition at minimum 50%?
condition not met

Would you say CCCCCCCCCCCCCCCCOCC(Cl)COP(=O)(O)OP(=O)(O)OCC1OC(n2cnc3c(N)ncnc32)C(O)C1O (stereo not given) shows growth inhibition at minimum 50%?
condition met

Would you say CCCC#CCOC(=O)c1cc([N+](=O)[O-])cc([N+](=O)[O-])c1 shows growth inhibition at minimum 50%?
condition met

Would you say CC(=O)O/N=C/c1c2ccccc2cc2ccccc12 shows growth inhibition at minimum 50%?
condition not met

Would you say O=C1c2ccccc2C(=O)C1C(c1ccc(F)cc1)C1C(=O)c2ccccc2C1=O shows growth inhibition at minimum 50%?
condition not met

Would you say O=C1c2ccccc2C2CCC1c1ccccc12 (stereo not given) shows growth inhibition at minimum 50%?
condition not met
